Each recorded value in this set is attributed to paper PMC10366140.

Tested on: apRAD51C-CTD-1 WT (Alvinella pompejana)
experiment-notes: fluorescence polarization
condition-info: FP: 20 mM HEPES pH 8, 80 mM NaCl, 2.5 mM ATP, 2.5 mM MgCl2, 1 mM DTT, 0.1 mg/mL BSA, 10 nM DNA, 37 C 20 min, EMSA: 20 mM Tris pH 8.0, 150 mM KCl, 4 C 15 min

{"residue-sequence": "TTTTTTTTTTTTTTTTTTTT [poly-20dT]", "target-entity": "apRAD51C-CTD-1 WT (Alvinella pompejana)", "Kd": "1250 nM"}
